These entries and their values trace back to PubChem BioAssay.

Test system: Chordin-like protein 2 (CHRDL2)
TEST NAME: CHRDL2 small-molecule binders, primary screen, biochemical, small-molecule microarray, 635 nm fluorescence (AID 1126);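 also: printed compound slides probed with Chrdl2 protein at 4 µg/mL for 1 h at 4 C; score merges 667 nm emission intensity with signal to noise over three replicate slides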
EXPERIMENTAL CONDITIONS: small-molecule microarray binding, fluorescence 635 nm; higher = more signal
Each entry gets not satisfied if its composite z-score stays under 0.4, and satisfied if its composite z-score is 0.4 or above.

COMPOUND | ANSWER LABEL
COC(=O)[C@H](C)NC(=O)CCC1CC(OC(=O)NCc2ccc3c(c2)OCO3)CC2(CCCC(COC(=O)NCC(c3ccccc3)c3ccccc3)O2)O1 (stereo partly specified) | satisfied
CON=C[C@@H](C)[C@H](OCc1ccccc1)C(C)C | satisfied
CCOC(=O)[C@H](CC(C)C)NC(=O)CCC1CC(OC(=O)NCc2ccc3c(c2)OCO3)CC2(CCCC(COC(=O)NCc3cccc(C(F)(F)F)c3)O2)O1 (stereo partly specified) | not satisfied
O=C1CCCC(C2=CCCCC2=O)C1 (stereo unspecified) | satisfied
CO[C@@H]1COC(=O)[C@@H](C)COC(=O)[C@@H](C)NC(=O)CC=C[C@@H]1C | satisfied

Ask: Given COc1cc(O)c(C(=O)C=Cc2ccc3c(c2)OCO3)c(OC)c1 , state whether its composite z-score is at least 0.4.
Reply: not satisfied

Ask: Given O=C1C[C@@H](O)[C@@H](O)[C@@H]2[C@@H]3C(=O)N(Cc4ccc5c(c4)OCO5)C(=O)[C@@H]3CC[C@H]12 , state whether its composite z-score is at least 0.4.
Reply: not satisfied

Ask: Given COC(=O)CC=C[C@@H](C)[C@@H](C=NO[C@H](C)c1cn([C@@H]2COC[C@H]2O)nn1)NS(=O)(=O)c1ccc(C)cc1 , state whether its composite z-score is at least 0.4.
Reply: satisfied

Ask: Given C[C@H]1Cc2c(COc3ccccc3)nc3c(c2CO1)CN(CCOc1ccccc1)CC3 , state whether its composite z-score is at least 0.4.
Reply: satisfied
